The reported numbers originate from patent US20220227830A1.

- target desc: T1, full-length human GIPR with an N-terminal FLAG tag (human, UniProt P48546 22-466)
- T1 sequence (looked up): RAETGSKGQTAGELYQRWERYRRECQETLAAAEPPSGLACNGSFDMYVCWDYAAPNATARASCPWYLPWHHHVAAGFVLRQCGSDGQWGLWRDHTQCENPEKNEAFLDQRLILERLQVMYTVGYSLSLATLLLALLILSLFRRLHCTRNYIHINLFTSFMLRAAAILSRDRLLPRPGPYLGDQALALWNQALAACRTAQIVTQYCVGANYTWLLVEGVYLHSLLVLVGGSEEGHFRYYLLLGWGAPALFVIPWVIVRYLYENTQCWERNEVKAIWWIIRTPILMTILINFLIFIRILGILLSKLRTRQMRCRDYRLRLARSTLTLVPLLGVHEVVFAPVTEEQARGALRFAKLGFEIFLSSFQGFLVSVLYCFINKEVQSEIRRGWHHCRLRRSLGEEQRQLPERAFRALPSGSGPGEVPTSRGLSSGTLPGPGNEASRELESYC
- protocol: cell-based or functional assay
Starred links: 1 amine or outer side, 2 acyl side, 3 side chain; linkers in the order of their positions; H or OH if unused. Non-standard residues stand in square brackets, D forms with d. Groups on a side chain read outwards from the residue. No end group written: not given here. *: point of attachment. G2E3 = linker of 2 Gly and 3 Glu (read GGEEE); C16 diacid = O=C(O)CCCCCCCCCCCCCCC(=O)*; C15 diacid = O=C(O)CCCCCCCCCCCCCC(=O)*; γGlu = O=C(O)[C@H](CCC(=O)[*:2])N[*:1]; NMeY = CN[C@@H](Cc1ccc(O)cc1)C(=O)O; AEEA = NCCOCCOCC(=O)O; Aib = CC(C)(N)C(=O)O
metric: Human GIPR cAMP, HEK293T EC50 (pM)
Please respond with the number in pM and leave the unit unwritten.

# annotated cases, reported Human GIPR cAMP, HEK293T EC50 shown
[[record]]
binder = "[NMeY][Aib]EGTFISDYSI[Aib]LDR[Aib]KQ[Aib]DFVNWLLAQR-NH2 (not fully specified (residue 18)) [Compound 117]"
metric = "Human GIPR cAMP, HEK293T EC50"
unit_info = "pM"
measured = 0.6

[[record]]
binder = "[NMeY][Aib]EGTFISDYSIAK([G2E3-C15 diacid])DR[Aib]AQ[Aib]NFVNWLLAQK-NH2 [Compound 30]"
metric = "Human GIPR cAMP, HEK293T EC50"
unit_info = "pM"
measured = 0.1

[[record]]
binder = "[NMeY][Aib]EGTFISDYSIAKDR[Aib]AQ[Aib]NFVNWLLAQRPSSGAPPPS-NH2 (not fully specified (residue 14)) [Compound 77]"
metric = "Human GIPR cAMP, HEK293T EC50"
unit_info = "pM"
measured = 0.2

[[record]]
binder = "[NMeY][Aib]EGTFISDYSIALDRIHQK([AEEA-AEEA-γGlu-C16 diacid])NFVNWLLAQK (not fully specified) [Compound 4]"
metric = "Human GIPR cAMP, HEK293T EC50"
unit_info = "pM"
measured = 0.5


State its Human GIPR cAMP, HEK293T EC50 for this binder: [NMeY][Aib]EGTFISDYSIAK([G5-γGlu-C15 diacid])DR[Aib]AQ[Aib]NFVNWLLAQSPSSGAPPPS-NH2 [Compound 82]
0.3
